- target.system: T1, ScPif1 (Saccharomyces cerevisiae, UniProt P07271 236-753)
- T1 sequence: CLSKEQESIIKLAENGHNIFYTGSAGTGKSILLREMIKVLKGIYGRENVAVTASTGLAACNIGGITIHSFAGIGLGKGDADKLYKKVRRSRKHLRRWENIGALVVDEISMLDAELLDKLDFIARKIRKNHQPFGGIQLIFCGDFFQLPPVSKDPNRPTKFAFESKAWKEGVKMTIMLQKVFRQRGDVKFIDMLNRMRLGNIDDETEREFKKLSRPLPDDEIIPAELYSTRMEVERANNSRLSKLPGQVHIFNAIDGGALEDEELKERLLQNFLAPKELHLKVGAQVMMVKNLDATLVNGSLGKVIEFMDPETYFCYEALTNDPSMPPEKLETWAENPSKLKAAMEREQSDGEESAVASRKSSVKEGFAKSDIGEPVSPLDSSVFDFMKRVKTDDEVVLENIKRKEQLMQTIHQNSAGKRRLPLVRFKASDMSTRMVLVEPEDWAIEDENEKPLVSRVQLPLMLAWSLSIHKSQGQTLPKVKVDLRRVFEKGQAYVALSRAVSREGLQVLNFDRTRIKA
- protocol.text: fluorescence anisotropy; no nucleotide; Fluorescence anisotropy: 20 mM HEPES-NaOH pH 7.5, 100 mM NaCl, 10% glycerol, 20 C, 10 nM FAM-DNA, 30 min, quadratic fit
- protocol.conditions: protein: recombinant; tags: N-terminal SUMO tag (Ni-NTA purified), cleaved by Ulp protease; label: 3' 6-FAM; parallel intramolecular G4 with 5' ssDNA tail
reported.property: Kd
Param answer (str): number followed by unit.

Task: For TTTTTTTTGGTGGTGGTTGTTGTGGTGGTGGTGGT (structured_DNA) [T7-AT11-FAM] , write its Kd.
Output: 7.23 nM
